Cited source: paper PMC6695191

Give pIC50 for every item shown.
- Test system: L. donovani promastigotes
- Assay name: L. donovani promastigote assay (Alamar Blue)
- Assay type: cell-based, Leishmania donovani
- Measurement context: Leishmania donovani; 72 h incubation at 28°C, mean ± SD, n = 2 biological replicates
Numbers only, as −log10 of the molar value.

Consider the worked cases shown below.
Molecule	Target or test system	pIC50
CO[C@@H]1C[C@@H](C[C@H]2CC[C@H](C)[C@H]([C@@H](C)C(=O)O)O2)O[C@]2(O[C@](C)([C@H]3CC[C@@](C)([C@@H]4O[C@@H]([C@H]5O[C@@](O)(CO)[C@H](C)C[C@@H]5C)C[C@@H]4C)O3)C[C@H]2C)[C@@H]1C [Compound 3, nigericin]	L. donovani promastigotes	6.55
CC[C@@H]1C[C@H]2CC[C@H](O2)[C@H](C)C(=O)O[C@@H](C)C[C@@H]2CC[C@@H](O2)[C@@H](C)C(=O)O[C@H](CC)C[C@H]2CC[C@H](O2)[C@H](C)C(=O)O[C@@H](C)C[C@@H]2CC[C@@H](O2)[C@@H](C)C(=O)O1 [Compound 4, dinactin]	L. donovani promastigotes	7.49
CCCCCCCCCCCCCCCCOP(=O)([O-])OCC[N+](C)(C)C [Miltefosine, reference compound]	L. donovani promastigotes	5.32

[Q] Any idea what pIC50 was measured for C/C=C(\C)[C@H](O)[C@H](C)/C=C(C)/C=C/C/C(C)=C/Cc1nc(OC)c(OC)c(O)c1C [Compound 2, piericidin-A1] ?
[A] 4.42

---

- Assay name: Selectivity assay on THP-1 macrophages (Alamar Blue)
- Type: cell-based
- Measurement context: human; THP-1 macrophages, 120 h incubation, mean ± SD, n = 2 biological replicates; read-out: CC50 THP-1
Quantity kind: CC50 at 120 h (µM)
Give bare numbers, in µM.

[Q] Any idea what CC50 at 120 h was measured for CC[C@@H]1C[C@H]2CC[C@H](O2)[C@H](C)C(=O)O[C@@H](C)C[C@@H]2CC[C@@H](O2)[C@@H](C)C(=O)O[C@H](CC)C[C@H]2CC[C@H](O2)[C@H](C)C(=O)O[C@@H](C)C[C@@H]2CC[C@@H](O2)[C@@H](C)C(=O)O1 [Compound 4, dinactin] ?
[A] 11.8

---

- Assay name: Selectivity assay on THP-1 macrophages (Alamar Blue)
- Format: cell-based
- Measurement context: human
Quantity kind: CC50 at 120 h (µM)
Give bare numbers, in µM.

[Q] Any idea what CC50 at 120 h was measured for CO[C@@H]1C[C@@H](C[C@H]2CC[C@H](C)[C@H]([C@@H](C)C(=O)O)O2)O[C@]2(O[C@](C)([C@H]3CC[C@@](C)([C@@H]4O[C@@H]([C@H]5O[C@@](O)(CO)[C@H](C)C[C@@H]5C)C[C@@H]4C)O3)C[C@H]2C)[C@@H]1C ?
[A] 11.5

---

- Assay name: Selectivity assay on THP-1 macrophages (Alamar Blue)
- Format: cell-based
- Measurement context: human, THP-1 cells differentiated into macrophages with PMA; THP-1 macrophages, 120 h incubation, mean ± SD, n = 2 biological replicates; read-out: CC50 THP-1
Quantity kind: CC50 at 120 h (nM)
One number for each entry, in nM.

[Q] Any idea what CC50 at 120 h was measured for COc1cccc2c1C(=O)c1c(O)c3c(c(O)c1C2=O)C[C@@](O)(C(=O)CO)C[C@@H]3O[C@H]1C[C@H](N)[C@H](O)[C@H](C)O1 [Doxorubicin, reference compound] ?
[A] 571
